Measured RP-LC retention time accompanies every entry in the list below.
experiment: gradient 5% acetonitrile 3 min, to 50% in 2 min, to 85% in 15 min, held 3 min, 100 µL/min; conditions: column: Zorbax Extend-C18 2.1 x 50 mm; eluents: water / acetonitrile, 0.1% formic acid
Numeric only. Scale: s

Recorded RP-LC retention time, per entry:
> print(dat)
                                 smiles.str  unit.text  result
1  Cc1cc(C)nc(Nc2nc(CC(=O)N3CCN(C4CCCCC4)CC3)cs2)n1          s     558
2  Nc1cc(C2CCN(S(=O)(=O)c3cccc(Br)c3)CC2)no1          s     824
3  O=C(Nc1c(-c2ccccc2)nc2ccc(Cl)cn12)c1ccco1          s     674
4  CCCS(=O)(=O)N1CCC[C@H]1c1nc(-c2ccc(F)cc2)n[nH]1          s     740

I have this molecule here, COc1ccc(NC(=O)CSc2cc(NCc3ccccc3Cl)ncn2)c(OC)c1 , and I need its recorded RP-LC retention time.
933
